Values of IC50 for human ACC2 (Homo sapiens (Human)), collected from a number of published sources:
Cut-off 0.4 µM on IC50: below means Met, at or above means Not met.

Before answering, review these 5 worked examples.
compound=O=C1OC2(CCCC2)C(O)=C1c1cc(-c2cc(F)c(F)c(F)c2)ccc1Cl class_name="Not met"
compound="CCCC(C)Nc1ncc(C#Cc2ccc(CC(C)NC(C)=O)cc2)cn1 (centres unmarked)" class_name=Met
compound="CCOc1ccc(N2CCC(c3ccc(C(C)C(=O)NCC4CC4)cc3)CC2)cc1 (centres unmarked)" class_name="Not met"
compound="CC(=O)NC(C)CCc1ccc(Oc2ccc(OCc3ccccc3)nc2)cc1 (centres unmarked)" class_name=Met
compound="C[C@H](NC(=O)C1(C#N)CC1)c1ccc(CN2Cc3ccc(OCC4CC4)cc3C(O)C2)cc1 (some centres unmarked)" class_name=Met

Data request: is_below(IC50, 0.4 µM) for CC(=O)N[C@@H](C)c1ccc(OC2CCN(c3ccc(OC4CC4)cc3C)C2)cc1 (some centres unmarked) ?
Data returned: Met

Data request: is_below(IC50, 0.4 µM) for CC(=O)N[C@@H](C)c1ccc(OC2CCN(c3cccc(OC(F)(F)F)c3)C2)cc1 (some centres unmarked) ?
Data returned: Not met

Data request: is_below(IC50, 0.4 µM) for CCOc1ccc(C#Cc2ccc(CC(C)NC(=O)C(=O)CC)cc2)cc1 (centres unmarked) ?
Data returned: Not met

----------
Values of IC50 for human ACC2 (Homo sapiens (Human), UniProt O00763), collected from a number of published sources:
Cut-off 300 nM on IC50: below means 1, at or above means 0.

compound=CC(=O)N[C@@H](C)c1ccc(O[C@@H]2CCN(c3ccnc(OCC4(C)CC4)c3)C2)cc1 class_name=1
compound="CC(=O)NC(C)Cc1ccc(C#Cc2ccc(OCc3cccnc3)cc2)cc1 (centres unmarked)" class_name=0
compound="COC(=O)NC(C)Cc1ccc(C#Cc2cnc(NCc3cccnc3)nc2)cc1 (centres unmarked)" class_name=0
compound="CCCOc1ccc(N2CCC(Oc3ccc([C@H](C)NC(C)=O)cc3)C2)c(C#N)n1 (some centres unmarked)" class_name=0
compound="C[C@H](NC(=O)C1CCC(=O)O1)c1ccc(CN2Cc3ccc(OCC4CC4)cc3C(F)C2)cc1 (some centres unmarked)" class_name=1
compound=Cc1ccc(-c2ccc(Cl)cc2)cc1C1=C(O)C2(CCCCC2)OC1=O class_name=0
compound=Cc1ccc(-c2ccc(Cl)cc2)cc1C1=C(O)CN(CC(C)C)C1=O class_name=0

Data request: is_below(IC50, 300 nM) for CCCCOc1ccc(C#Cc2ccc(CC(C)NC(C)=O)cc2)cc1 (centres unmarked) ?
Data returned: 1

----------
Values of pIC50 for human ACC2 (Homo sapiens (Human), UniProt O00763), collected from a number of published sources:
// pIC50: -log10(molar conc.)

compound=Cc1ccc(-c2ccc(Cl)cc2)c(C)c1C1=C(O)C2(CCCCC2)OC1=O tested_system="human ACC2 (Homo sapiens (Human), UniProt O00763)" readout_value=5.82

So the reported pIC50 for CC(=O)N[C@@H](C)c1ccc(C2CN(c3ccnc(OCC4CC4)c3)C2)cc1 , on human ACC2 (Homo sapiens (Human), UniProt O00763), turned out to be 5.80

So the reported pIC50 for CC(=O)N[C@@H](C)c1ccc(O[C@@H]2CCN(c3ccnc(C4CC4)c3F)C2)cc1 , on human ACC2 (Homo sapiens (Human), UniProt O00763), turned out to be 6.61

So the reported pIC50 for CCNC(=O)C(C)c1ccc(C#Cc2ccc(OC(C)C)nc2)cc1 (stereo not shown) , on human ACC2 (Homo sapiens (Human), UniProt O00763), turned out to be 6.60
